- systemTested: Neutrophil elastase (Homo sapiens)
- Sequence (P08246 whole entry): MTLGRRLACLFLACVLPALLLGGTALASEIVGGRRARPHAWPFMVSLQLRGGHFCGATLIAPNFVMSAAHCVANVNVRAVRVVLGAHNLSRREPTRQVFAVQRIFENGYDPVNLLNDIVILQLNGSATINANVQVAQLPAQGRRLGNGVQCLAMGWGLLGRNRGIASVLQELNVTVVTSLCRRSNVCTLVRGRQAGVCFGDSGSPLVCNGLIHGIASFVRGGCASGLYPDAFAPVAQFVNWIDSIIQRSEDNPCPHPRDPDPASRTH
- procedureSummary: In vitro inhibitory activity against human leukocyte elastase was determined
readoutName: pIC50
Please note pIC50 is a logarithmic value: minus log10 of concentration in mol/L. Answer with that number alone.

Request: Form field: reported pIC50 of CC(C)CC(=O)NCC(F)(F)C(=O)C(CC1CCCCC1)NC(=O)[C@@H](NC(=O)[C@H](Cc1ccccc1)NC(=O)OC(C)(C)C)C(C)C (stereo partly specified)
Response: 8.46

* * *

- systemTested: Neutrophil elastase (Homo sapiens, UniProt P08246)
- procedureSummary: In vitro inhibitory activity against human leukocyte elastase was determined
pKi: −log10 of the molar value.
Kindly return met if reported pKi is no lower than 9; return not met if it is lower.

Sample answers from the record:
{"columns": ["givenSmiles", "assignedCategory"],
 "data": [
  ["CC(C)[C@H](NC(=O)Oc1ccccc1)C(=O)N1CCC[C@H]1C(=O)N[C@H](C(=O)C(F)(F)F)C(C)C", "not met"],
  ["CC(C)[C@H](NC(=O)Oc1ccccc1)C(=O)N1CCC[C@H]1C(=O)N[C@H](C(=O)C(F)(F)CNC(=O)OC(C)(C)C)C(C)C", "met"],
  ["CC(C)[C@H](NC(=O)OCc1ccccc1)C(=O)N1CCC[C@H]1C(=O)N[C@H](C(=O)C(F)(F)CN)C(C)C", "not met"],
  ["COc1ccc(C(=O)N[C@H](C(=O)N2CCC[C@H]2C(=O)N[C@H](C(=O)C(F)(F)CNCc2ccccc2)C(C)C)C(C)C)cc1", "met"],
  ["CNC(=O)C(F)(F)C(=O)[C@@H](NC(=O)[C@@H]1CCCN1C(=O)[C@@H](NC(=O)OCc1ccccc1)C(C)C)C(C)C", "not met"]
]}

Request: Is reported pKi greater than or equal to 9 here: CNC(=O)C(F)(F)C(=O)[C@@H](NC(=O)[C@@H]1CCCN1C(=O)[C@@H](NC(=O)c1ccc(OC)cc1)C(C)C)C(C)C
Response: not met

* * *

- systemTested: Neutrophil elastase (Homo sapiens, UniProt P08246)
- procedureSummary: In vitro inhibitory activity against human leukocyte elastase was determined
Entries annotated with measured pKi
Please note pKi is a logarithmic value: minus log10 of concentration in mol/L. Answer with that number alone.

Please review the following examples before continuing.
{"columns": ["givenSmiles", "readoutName", "numericResult"],
 "data": [
  ["COc1ccc(C(=O)N[C@H](C(=O)N2CCC[C@H]2C(=O)N[C@H](C(=O)C(F)(F)C(N)=O)C(C)C)C(C)C)cc1", "pKi", 9.19],
  ["CC(C)[C@H](NC(=O)Oc1ccccc1)C(=O)N1CCC[C@H]1C(=O)N[C@H](C(=O)C(F)(F)CNCc1ccccc1)C(C)C", "pKi", 8.39],
  ["CC(C)[C@H](NC(=O)Oc1ccccc1)C(=O)N1CCC[C@H]1C(=O)N[C@H](C(=O)C(F)(F)CN)C(C)C", "pKi", 9.09]
]}

Request: What pKi appears in the records for this molecule with Neutrophil elastase (Homo sapiens, UniProt P08246)? COc1ccc(C(=O)N[C@H](C(=O)N2CCC[C@H]2C(=O)N[C@H](C(=O)C(F)(F)CN)C(C)C)C(C)C)cc1
Response: 7.82

Request: What pKi appears in the records for this molecule with Neutrophil elastase (Homo sapiens, UniProt P08246)? COc1ccc(C(=O)N[C@H](C(=O)N2CCC[C@H]2C(=O)N[C@H](C(=O)C(F)(F)CNC(=O)OC(C)(C)C)C(C)C)C(C)C)cc1
Response: 8.47
